# IC50 per entry
- ASSAY_TARGET: ALK [WT] (Homo sapiens)
- Sequence (Q9UM73 19-1620): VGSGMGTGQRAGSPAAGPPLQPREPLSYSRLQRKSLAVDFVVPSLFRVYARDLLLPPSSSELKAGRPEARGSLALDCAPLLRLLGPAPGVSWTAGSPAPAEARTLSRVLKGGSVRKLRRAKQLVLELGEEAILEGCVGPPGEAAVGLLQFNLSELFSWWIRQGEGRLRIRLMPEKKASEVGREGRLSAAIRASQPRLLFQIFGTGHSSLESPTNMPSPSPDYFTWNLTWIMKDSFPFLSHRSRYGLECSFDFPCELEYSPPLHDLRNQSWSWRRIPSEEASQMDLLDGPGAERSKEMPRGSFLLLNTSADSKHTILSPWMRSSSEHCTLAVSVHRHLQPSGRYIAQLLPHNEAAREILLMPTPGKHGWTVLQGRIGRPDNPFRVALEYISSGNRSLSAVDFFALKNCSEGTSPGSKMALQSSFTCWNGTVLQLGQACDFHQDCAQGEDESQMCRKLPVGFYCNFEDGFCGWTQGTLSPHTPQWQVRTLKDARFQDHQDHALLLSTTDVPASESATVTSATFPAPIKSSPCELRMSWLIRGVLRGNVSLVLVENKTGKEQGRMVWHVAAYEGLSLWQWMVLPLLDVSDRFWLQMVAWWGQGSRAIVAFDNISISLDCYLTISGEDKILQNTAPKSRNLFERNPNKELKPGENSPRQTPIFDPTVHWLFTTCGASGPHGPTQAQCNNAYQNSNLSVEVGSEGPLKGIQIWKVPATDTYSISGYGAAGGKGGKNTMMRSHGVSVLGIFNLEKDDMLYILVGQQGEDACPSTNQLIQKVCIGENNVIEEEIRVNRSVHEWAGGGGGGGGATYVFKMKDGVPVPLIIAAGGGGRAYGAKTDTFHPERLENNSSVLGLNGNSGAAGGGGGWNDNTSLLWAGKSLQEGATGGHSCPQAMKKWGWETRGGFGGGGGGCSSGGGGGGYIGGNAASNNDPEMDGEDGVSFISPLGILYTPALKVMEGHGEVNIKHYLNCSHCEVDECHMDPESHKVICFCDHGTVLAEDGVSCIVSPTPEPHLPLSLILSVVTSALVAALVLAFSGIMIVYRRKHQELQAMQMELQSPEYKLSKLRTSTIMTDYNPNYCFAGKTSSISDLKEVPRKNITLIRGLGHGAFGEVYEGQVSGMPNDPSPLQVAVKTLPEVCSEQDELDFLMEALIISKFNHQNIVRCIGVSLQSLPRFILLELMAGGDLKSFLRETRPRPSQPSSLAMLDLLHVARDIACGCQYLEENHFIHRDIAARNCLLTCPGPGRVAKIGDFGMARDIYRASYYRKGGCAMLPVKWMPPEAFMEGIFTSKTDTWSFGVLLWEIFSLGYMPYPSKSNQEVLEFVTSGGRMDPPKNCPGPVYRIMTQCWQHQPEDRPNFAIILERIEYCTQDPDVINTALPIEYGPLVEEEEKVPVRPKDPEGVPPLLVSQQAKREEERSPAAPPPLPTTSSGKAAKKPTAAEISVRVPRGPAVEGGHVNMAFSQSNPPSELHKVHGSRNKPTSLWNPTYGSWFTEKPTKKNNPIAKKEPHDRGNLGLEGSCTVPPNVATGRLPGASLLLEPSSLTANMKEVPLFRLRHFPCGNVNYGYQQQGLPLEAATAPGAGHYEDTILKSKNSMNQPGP
- ASSAY_PROCEDURE: Kinase inhibition assay, ALK [WT]
- Type: biochemical
- Protocol: Compound preparation: The test compounds were dissolved in DMSO to make 20 mM stock solutions. […] Kinase assay: after preparing the buffer solution, the enzyme was mixed with pre-diluted compounds with different concentrations, and placed at room temperature for 30 minutes in duplicate. […] Data was analyzed and fit according to XLfit5 software. IC50 was calculated by the following formula: (IC50=[(ABS test-ABS begin)/(ABS control-ABS begin)]×100).

COc1nc(N(C)CCN(C)C)ccc1Nc1nc(Nc2ccccc2P(C)(C)=O)c2cc[nH]c2n1 [Example 15]: 5 to 10 nM

Record COc1nc(N2CCC(N3CCN(C)CC3)CC2)ccc1Nc1ncc(Cl)c(Nc2ccccc2P(C)(C)=O)n1 [Example 4] . Reported IC50: 5 to 10 nM

Record COc1nc(N2CCC(N3CCN(C)CC3)CC2)ccc1Nc1nc(Nc2ccccc2P(C)(C)=O)c2cc[nH]c2n1 [Example 16] . Reported IC50: ≤ 5 nM

Record CN(C)CCc1ccc(Nc2ncc(Cl)c(Nc3ccccc3P(C)(C)=O)n2)c(OCC(F)(F)F)n1 [Example 19] . Reported IC50: 10 to 50 nM
